Source listed as paper PMC10786891.

Below: a set of entries, each annotated with reported Kd.
Assay Target: T1, EsCas13d, nuclease-dead (Eubacterium siraeum, UniProt B0MS50, R295A;H300A;R849A;H854A)
T1 sequence: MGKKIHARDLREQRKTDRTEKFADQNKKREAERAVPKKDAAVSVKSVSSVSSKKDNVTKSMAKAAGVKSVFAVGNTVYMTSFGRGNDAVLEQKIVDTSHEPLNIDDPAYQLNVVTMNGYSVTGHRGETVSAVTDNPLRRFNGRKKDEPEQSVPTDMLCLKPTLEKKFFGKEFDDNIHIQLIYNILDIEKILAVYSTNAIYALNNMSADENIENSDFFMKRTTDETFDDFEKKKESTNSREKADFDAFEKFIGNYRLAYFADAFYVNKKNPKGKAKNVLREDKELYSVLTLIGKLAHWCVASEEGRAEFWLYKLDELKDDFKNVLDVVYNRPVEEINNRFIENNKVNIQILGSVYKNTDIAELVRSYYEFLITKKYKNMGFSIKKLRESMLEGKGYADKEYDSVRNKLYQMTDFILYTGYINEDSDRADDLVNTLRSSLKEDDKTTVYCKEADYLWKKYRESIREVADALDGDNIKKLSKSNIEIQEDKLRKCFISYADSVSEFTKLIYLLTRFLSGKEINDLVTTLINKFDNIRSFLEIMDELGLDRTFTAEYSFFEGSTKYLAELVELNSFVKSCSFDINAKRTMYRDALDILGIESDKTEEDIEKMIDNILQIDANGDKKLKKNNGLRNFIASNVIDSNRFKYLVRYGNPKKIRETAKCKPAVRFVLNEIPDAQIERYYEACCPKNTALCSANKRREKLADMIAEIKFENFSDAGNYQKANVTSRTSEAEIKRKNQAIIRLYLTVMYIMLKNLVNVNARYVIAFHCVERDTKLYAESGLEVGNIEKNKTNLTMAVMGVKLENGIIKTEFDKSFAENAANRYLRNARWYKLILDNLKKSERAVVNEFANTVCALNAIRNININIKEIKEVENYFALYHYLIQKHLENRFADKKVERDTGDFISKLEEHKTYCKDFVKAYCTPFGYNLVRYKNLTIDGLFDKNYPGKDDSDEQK
Experiment Description: crRNA (strand 1, pre-loaded); Mg2+; 40 mM Tris-HCl pH 7.5, 150 mM NaCl, 6 mM MgCl2, 1 mM DTT, 0.1% Tween-20, 0.2 mg/ml BSA; 25 C; 10 min per concentration, then washed
Test Context: tags: His6-TwinStrep-SUMO cleaved; N-terminal SNAP kept (SNAP-Surface 488); label: 3' end held by stalled T7 RNA polymerase
Numbers only; they are read as nM.

target 1 G5U,G15U (mixed) RNA 1: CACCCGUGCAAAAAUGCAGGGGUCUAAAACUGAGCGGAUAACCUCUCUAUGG RNA 2: GGGAAUGGAUCCACAUCUACGAAUUCGUACCAUAGAUAGGUUAUCCUCUCACCGAGAUCGGAAGAGCACACGU = 31
target 2 MT 5'PFS UAG 3'PFS AUA (mixed) RNA 1: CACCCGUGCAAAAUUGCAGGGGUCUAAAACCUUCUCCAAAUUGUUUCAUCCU RNA 2: GGGAAUGGAUCCACAUCUACGAAUUCUAGAGGAUGAAACAAUUUGGAGAAGAUAAGAUCGGAAGAGCACACGU = 2.63

Okay, now this binder:
Q: Sample target 2 MT 5'PFS UCA 3'PFS UAC (mixed) RNA 1: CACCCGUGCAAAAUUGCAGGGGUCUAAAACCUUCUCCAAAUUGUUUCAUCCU RNA 2: GGGAAUGGAUCCACAUCUACGAAUUCUCAAGGAUGAAACAAUUUGGAGAAGUACAGAUCGGAAGAGCACACGU — what was its Kd?
Ans: 5.7
